B1: ATGL (PNPLA2, patatin-like phospholipase domain-containing protein 2), human, full length / perilipin-1, mouse (mPlin1) (parent)
chain 1: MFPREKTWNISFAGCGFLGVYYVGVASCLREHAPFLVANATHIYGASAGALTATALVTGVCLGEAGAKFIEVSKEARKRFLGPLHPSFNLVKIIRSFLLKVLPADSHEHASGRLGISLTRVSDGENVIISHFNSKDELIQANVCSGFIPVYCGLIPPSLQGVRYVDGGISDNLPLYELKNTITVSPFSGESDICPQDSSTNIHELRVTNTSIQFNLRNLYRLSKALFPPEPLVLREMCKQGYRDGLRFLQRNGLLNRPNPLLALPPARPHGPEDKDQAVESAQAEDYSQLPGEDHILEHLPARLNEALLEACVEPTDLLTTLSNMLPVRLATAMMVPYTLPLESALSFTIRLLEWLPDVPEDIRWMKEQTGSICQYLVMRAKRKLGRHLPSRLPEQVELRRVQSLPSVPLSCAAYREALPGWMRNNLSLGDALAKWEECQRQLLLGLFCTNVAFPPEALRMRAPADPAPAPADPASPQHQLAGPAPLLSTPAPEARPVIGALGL
chain 2: MSMNKGPTLLDGDLPEQENVLQRVLQLPVVSGTCECFQKTYNSTKEAHPLVASVCNAYEKGVQGASNLAAWSMEPVVRRLSTQFTAANELACRGLDHLEEKIPALQYPPEKIASELKGTISTRLRSARNSISVPIASTSDKVLGATLAGCELALGMAKETAEYAANTRVGRLASGGADLALGSIEKVVEFLLPPDKESAPSSGRQRTQKAPKAKPSLVRRVSTLANTLSRHTMQTTAWALKQGHSLAMWIPGVAPLSSLAQWGASAAMQVVSRRQSEVRVPWLHNLAASQDESHDDQTDTEGEETDDEEEEEESEAEENVLREVTALPNPRGLLGGVVHTVQNTLRNTISAVTWAPAAVLGTVGRILHLTPAQAVSSTKGRAMSLSDALKGVTDNVVDTVVHYVPLPRLSLMEPESEFRDIDNPSAEAERKGSGARPASPESTPRPGQPRGSLRSVRGLSAPSCPGLDDKTEASARPGFLAMPREKPARRVSDSFFRPSVMEPILGRAQYSQLRKKS

# Variants of: B1
# experiment: LUMIER: Protein A-ATGL variant and firefly luciferase-partner co-expressed in HEK293T, lysates immunoprecipitated on IgG-coated plates, co-precipitated partner measured as luciferase luminescence
# particulars: with perilipin-1, mouse (mPlin1), transient co-transfection, IgG-coated LUMITRAC plates, 2 h at 4 °C, three PBS washes, Bright-Glo luciferase reagent, triplicates per assay, two …, parent: -0.37, not graded, scale: log2 fold change of co-immunoprecipitated luminescence relative to wild-type ATGL within each experiment
screen value values, listed per item
# output: bare number, no unit

chain 1 S87E; -0.625
chain 1 N39E; -0.558
chain 1 A453E; 0.0778
chain 1 K92L; 0.166
chain 1 F35A; -0.158

Input line: Identify screen value associated with the variant chain 1 L102K
Output line: -0.807

Input line: Report measured screen value; entry is chain 1 I70A
Output line: -0.781
